- system.tested: human MET kinase F1200I (Homo sapiens, UniProt P08581, F1200I)
- Construct: GST-tagged recombinant human MET kinase domain; purchased Signal Chem
- Sequence (P08581 1078-1345 F1200I limits assumed): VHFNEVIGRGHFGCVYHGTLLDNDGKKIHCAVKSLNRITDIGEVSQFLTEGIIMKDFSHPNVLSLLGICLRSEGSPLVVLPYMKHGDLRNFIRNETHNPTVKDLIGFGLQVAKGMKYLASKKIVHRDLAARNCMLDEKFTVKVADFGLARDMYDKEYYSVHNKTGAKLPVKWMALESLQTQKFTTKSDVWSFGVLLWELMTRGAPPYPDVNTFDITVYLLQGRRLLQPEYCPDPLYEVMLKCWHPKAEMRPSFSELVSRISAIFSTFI
- test.description: c-Met Enzyme Assay, F1200I mutant
- Type: binding
- test.context: averaged IC50; F1200I 2 nM; 60-minute incubation at 22° C.
# 1 = IC50 below 5 nM (exclusive); 0 = IC50 at/above 5 nM

Input line: Dear colleague, could you confirm whether IC50 of COc1cc2nccc(Oc3ccc(NC(=O)c4cn(CC(=O)N(C)C)cc(-c5ccc(F)cc5F)c4=O)nc3)c2cc1OC [Example 13] falls below 5 nM? Thanks.
Output line: 1

Input line: Now give it for CCc1c(-c2ccc(F)cc2)c(=O)c(C(=O)Nc2ccc(Oc3ccnc4cc(OC)c(OC)cc34)cn2)cn1C(C)C [Example 29] too.
Output line: 1

Input line: Now give it for COc1cc2nccc(Oc3ccc(NC(=O)c4cn(C(C)C)cc(-c5ccc(F)c(F)c5)c4=O)nc3)c2cc1OC [Example 6] too.
Output line: 0

Input line: Now give it for COc1cc2nccc(Oc3ccc(NC(=O)c4cn(C(C)C)cc(-c5ccc(F)cc5C)c4=O)nc3)c2cc1OC [Example 19] too.
Output line: 1

Input line: Now give it for COc1cc2nccc(Oc3ccc(NC(=O)c4cn(CC(C)(C)O)cc(-c5ccc(F)cc5)c4=O)nc3)c2cc1OC [Example 9] too.
Output line: 0

Input line: Now give it for CCOc1ccc2c(Oc3ccc(NC(=O)c4cn(C(C)C)cc(-c5ccc(F)cc5)c4=O)nc3)ccnc2c1 [Example 52] too.
Output line: 0

Input line: Now give it for COc1cc2nccc(Oc3cnc(NC(=O)c4cn(C(C)C)cc(-c5ccc(F)cc5)c4=O)nc3)c2cc1OC [Example 54] too.
Output line: 0

Input line: Now give it for COc1cc2nccc(Oc3ccc(NC(=O)c4cn(C(C)C)c(C)c(-c5ccc(F)cc5)c4=O)nc3)c2cc1OC [Example 27] too.
Output line: 1

Input line: Now give it for COc1cc2nccc(Oc3ccc(NC(=O)c4cn(C(C)C)cc(-c5ccc(Cl)cc5)c4=O)nc3)c2cc1OC [Example 5] too.
Output line: 0

Input line: Now give it for COc1cc2nccc(Oc3ccc(NC(=O)c4cn(C(C)C)cc(-c5ccc(F)c(Cl)c5)c4=O)nc3)c2cc1OC [Example 21] too.
Output line: 0

Input line: Now give it for COc1cc2ncc(C#N)c(Oc3ccc(NC(=O)c4cn(C(C)C)cc(-c5ccc(F)cc5)c4=O)nc3)c2cc1OC [Example 57] too.
Output line: 0

Input line: Now give it for COc1cc2nccc(Oc3ccc(NC(=O)c4c[nH]cc(-c5ccc(F)cc5)c4=O)nc3)c2cc1OC [Example 26] too.
Output line: 0

Input line: Now give it for COc1cc2nccc(Oc3ccc(NC(=O)c4cn(C(C)C)cc(-c5ccc(F)cc5OC)c4=O)nc3)c2cc1OC [Example 32] too.
Output line: 1

These measurements were taken from patent US20200216416A1.
